Molecular target: T1, histidine-tagged human uPAR (Sino#10925-H08H) (human, UniProt Q03405 23-303)
T1 construct: also called uPAR-His
Experiment: BLI (Octet), uPAR on sensor, antibody in solution (avidity)
Measured metric: kon

Please report the recorded kon for M5 (antibody, V domains shown, Mouse hybridoma antibody; also called anti-uPAR antibody M5; parental M5) VH: QVQLKESGPGLVAPSQSLSITCTVSGFSLTNYGVHWVRQPPGKDLEWLVVIWSDGGTTYNSALKSRLSISKDNSKSQVFLKMNSLQTDDTAMYYCARGGRSDLFAYWGQGTLVTVSA VL: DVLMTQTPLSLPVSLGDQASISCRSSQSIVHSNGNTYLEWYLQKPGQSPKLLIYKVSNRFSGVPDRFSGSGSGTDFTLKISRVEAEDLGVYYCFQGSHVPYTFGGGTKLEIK .
28300 M⁻¹ s⁻¹

Please report the recorded kon for M43 (antibody, V domains shown, Mouse hybridoma antibody; also called anti-uPAR antibody M43; parental M43) VH: QVQLQQSGAELARPGASVNLSCKASGYTFTSYGISWVKQRTGQGLEWIGEIYPRSGNTYYNEKFKGKATLTADKSSRTAYMELRSLTSEDSAVYFCAGKDYGSTYADYWGQGTTLTVSS VL: QIVLTQSPAIMSASPGEKVTMTCSASSSVSSRYLHWYQQKSGASPKLWIYGTSNLASGVPARFSGSGSGTSYSLTINSVEAEDAATYYCQQYHSDPLTFGAGTKLELK .
554000 M⁻¹ s⁻¹

Please report the recorded kon for M1 (antibody, V domains shown, Mouse hybridoma antibody; also called anti-uPAR antibody M1; parental M1) VH: EVQLQQSGAELVRPGASVKLSCTASGFNIKDEYINWVKQRPEQGLEWIGWIDPENGDTEYASKFQGKATITADTSSNTAYLQLSSLTSEDTAVYYCTGGNYVGWFPYWGQGTLVTVSA VL: QIVLTQSPAIMSASPGEKVTMTCSASSSVSYMHWYQQKSGTSPKRWLYDTSKLASGVPARFSGSGSGTSYSLTISSMEAEDAATYYCQQWSSNPPYTFGGGTKLEIK .
448000 M⁻¹ s⁻¹

Source: patent US20220340678A1
